B1: HDV Ribozyme (parent)
chain: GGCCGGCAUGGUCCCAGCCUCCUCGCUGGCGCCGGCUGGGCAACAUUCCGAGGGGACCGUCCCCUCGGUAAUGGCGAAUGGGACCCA

# Variants of: B1
# protocol: self-cleavage, relative activity (ratio to wild type); higher = more cleavage; co-transcriptional
Label yes when self-cleavage is at or above 0.4; anything below gets no.

GGCCGGCAUGGUCCCAGCCUCCUCGAUGGCGCCGGCUGGGCUACAUUCCGAGGGGACCGUCCCCUCGGUAAUGGCGAAUGGGACCCA :: yes

Determine whether measured self-cleavage meets or exceeds 0.4 for GGCCGGCAUGGUCCCAGCCUCCUCGCCGGCGCCGGCUGGGCAACAUUCCGAGGGGACCGUCCCCUCGGUAAUCGCGAAUGGGACCCA no

Please indicate if the recorded self-cleavage for GGCCGGCAUGGUCCCAGCCUCCUCGCUGGCGACGGGUGGGCAACAUUCCGAGGGGACCGUCCCCUCGGUAAUGGCGAAUGGGACCCA meets or exceeds 0.4. no

Is it the case that GGCCGGCAUGGUCCCAGCCUCCUCGCUGGCGCCGUCUGGGCAACAUUCCGAGGGGACCGUCCCCUGGGUAAUGGCGAAUGGGACCCA has self-cleavage reaching or exceeding 0.4? yes

Record GGCCGGUAUGGUCCCAGCCUCCUCGCUGGCGCCGGCUGGGCAACAUUCCGAGGGGACCGACCCCUCGGUAAUGGCGAAUGGGACCCA ; criterion: self-cleavage no lower than 0.4. Met? yes

API: above_or_equal(metric=self-cleavage, cutoff=0.4) for item GGCCGGCAUGGUCCCAGCCUCAUCGCUGGCGCCGGCUGGGCAUCAUUCCGAGGGGACCGUCCCCUCGGUAAUGGCGAAUGGGACCCA no
